test system: MCF-7 (breast carcinoma); assay: Calcein AM cytotoxicity assay, MCF7; assay type: cell-based; settings: 72 hours incubation
assay_metric: GI50

Value of GI50 reported for the molecule O=P(O)(O)OC[C@H]1O[C@@H](n2cnc3c(NCc4ccc(Cl)c(Cl)c4)ncnc32)[C@H](O)[C@@H]1O is 88.8 µM

###

system: MCF-7 (breast carcinoma); assay: Calcein AM cytotoxicity assay, MCF7; format: cell-based; conditions: 72 hours incubation
assay_metric: GI50

// GI50 value for O=P(O)(O)OC[C@H]1O[C@@H](n2cnc3c(NCc4ccc(F)cc4)ncnc32)[C@H](O)[C@@H]1O : 14 µM

// GI50 lookup, compound = Cc1ccccc1CNc1ncnc2c1ncn2[C@@H]1O[C@H](COP(=O)(O)O)[C@@H](O)[C@H]1O , result: > 167 µM

Query O=P(O)(O)OC[C@H]1O[C@@H](n2cnc3c(NCc4ccc(Cl)cc4Cl)ncnc32)[C@H](O)[C@@H]1O yields GI50 of 127 µM

Quick note, GI50 for O=P(O)(O)OC[C@H]1O[C@@H](n2cnc3c(NCc4ccc(Br)cc4)ncnc32)[C@H](O)[C@@H]1O landed at > 167 µM

###

Test system: G-361 (human malignant melanoma)
Test: Calcein AM cytotoxicity assay, G-361
Assay type: cell-based
Details: 72 hours incubation
Source text: Because toxic compounds negatively influence metabolic processes in cells, many standard cytotoxicity assays are based on measurement of metabolisation rate of various artificial substrates. Resulting product is then quantified e.g. by means of spectrometry. […] For evaluation of cytotoxic effect of the novel substituted 9-substituted cytokinin derivatives of this invention, a microtiter assay based on quantification of metabolisation of Calcein AM was used. […]
assay_metric: GI50 (µM)
Give the quantity in µM, number only.

Sample answers from the record:
molecule	experimental_system	GI50, µM
O=P(O)(O)OC[C@H]1O[C@@H](n2cnc3c(NCc4cccc(F)c4)ncnc32)[C@H](O)[C@@H]1O [Compound 2]	G-361 (human malignant melanoma)	15.7
O=P(O)(O)OC[C@H]1O[C@@H](n2cnc3c(NCc4cc(Cl)ccc4O)ncnc32)[C@H](O)[C@@H]1O [Compound 47]	G-361 (human malignant melanoma)	12.5
O=P(O)(O)OC[C@H]1O[C@@H](n2cnc3c(NCc4cc(F)ccc4O)ncnc32)[C@H](O)[C@@H]1O [Compound 48]	G-361 (human malignant melanoma)	10.7
COc1cccc(CNc2ncnc3c2ncn3[C@@H]2O[C@H](COP(=O)(O)O)[C@@H](O)[C@H]2O)c1O [Compound 28]	G-361 (human malignant melanoma)	27.9

So, O=P(O)(O)OC[C@H]1O[C@@H](n2cnc3c(NCc4ccccc4O)ncnc32)[C@H](O)[C@@H]1O [Compound 21] ? Its GI50 was 13.5

Recorded result, COc1ccc(O)c(CNc2ncnc3c2ncn3[C@@H]2O[C@H](COP(=O)(O)O)[C@@H](O)[C@H]2O)c1 [Compound 29] , GI50: 12.3

###

System: MCF-7 (breast carcinoma)
Assay: Calcein AM cytotoxicity assay, MCF7
Assay type: cell-based
Conditions: 72 hours incubation
Source text: Because toxic compounds negatively influence metabolic processes in cells, many standard cytotoxicity assays are based on measurement of metabolisation rate of various artificial substrates. Resulting product is then quantified e.g. by means of spectrometry. […] For evaluation of cytotoxic effect of the novel substituted 9-substituted cytokinin derivatives of this invention, a microtiter assay based on quantification of metabolisation of Calcein AM was used. […]
assay_metric: GI50

O=P(O)(O)OC[C@H]1O[C@@H](n2cnc3c(NCc4ccc(F)cc4F)ncnc32)[C@H](O)[C@@H]1O [Compound 36] on MCF-7 (breast carcinoma) gives GI50 = > 167 µM

# O=P(O)(O)OC[C@H]1O[C@@H](n2cnc3c(NCc4cc(F)cc(F)c4)ncnc32)[C@H](O)[C@@H]1O [Compound 37] with MCF-7 (breast carcinoma): GI50 is > 167 µM

With MCF-7 (breast carcinoma) as the test system, COc1ccccc1CNc1ncnc2c1ncn2[C@@H]1O[C@H](COP(=O)(O)O)[C@@H](O)[C@H]1O [Compound 15] showed GI50 of > 167 µM

Record COc1cccc(CNc2ncnc3c2ncn3[C@@H]2O[C@H](COP(=O)(O)O)[C@@H](O)[C@H]2O)c1OC [Compound 31] ; system MCF-7 (breast carcinoma); GI50 = > 167 µM

MCF-7 (breast carcinoma) GI50 of O=P(O)(O)OC[C@H]1O[C@@H](n2cnc3c(NCc4ccccc4F)ncnc32)[C@H](O)[C@@H]1O [Compound 1] is > 167 µM
